assay: qHTS profiling for inhibitors of Plasmodium falciparum (3D7) proliferation (AID 743322);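 further: infected erythrocytes exposed to compound for 72 h before lysis; 100% = DMSO vehicle wells and 0% = 0.29 µM artemisinin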; conditions: P. falciparum 3D7 proliferation; at 28.7 µM (top of the series) unless noted
Below, each of the compounds is paired with its reported remaining parasite growth % (stronger effect = lower value) value.
The reply should be a number in %, with the unit left off.

These solved cases illustrate the format of a correct answer.
CN1CC(=O)N/C1=N/C(=O)Nc1cccc(Cl)c1; 102
C=CC(C)=C[C@@]1(C)SC(=O)C(C)=C1O; 98
CC[C@@H](C)[C@H]1O[C@]2(CC[C@H]1C)C[C@@H]1C[C@@H](CC=C(C)[C@@H](O[C@H]3C[C@H](OC)[C@@H](O[C@H]4C[C@H](OC)[C@@H](O)[C@H](C)O4)[C@H](C)O3)[C@@H](C)C=CC=C3CO[C@@H]4[C@H](O)C(C)=C[C@@H](C(=O)O1)[C@]34O)O2; -0.904

Enquiry: Need remaining parasite growth % (stronger effect = lower value) of C=C[C@@H]1CN2CC[C@@H]1C[C@H]2[C@H](O)c1ccnc2ccc(OC)cc12 , thanks.
Return: 0.99

---

assay: qHTS Assay for Identification of Small Molecule Agonists for Thrombopoietin (TPO) Signaling Pathway (AID 917); settings: TPO signaling pathway reporter cells, agonist qHTS, stimulated with TPO at its EC50; series mostly up to 38.5 µM
Records with an inconclusive call do not appear. The source made the active and inactive calls. Calls follow the shape of the dose curve; as a rule, active = well fitted activation curve with a large enough effect; inconclusive = small, poorly fitted or top-dose-only effect, or effect the other way; inactive = flat fitted curve, though single readings scatter.
Parameter call: string, one of YES (active), NO (inactive)

Here's what some known entries look like.
Cc1cc(NC(=O)Nc2ccc3c(ccn3C)c2)sn1; YES
Cn1c(=O)c2[nH]c(-c3ccccc3)nc2n(C)c1=O; NO
CC(C)Cc1ccc([C@H](C)C(=O)O)cc1; NO
N[C@H](CCCP(=O)(O)O)C(=O)O; NO

Enquiry: # fetch the recorded call for CN1[C@@H]2CC[C@H]1CC(OC(c1ccccc1)c1ccccc1)C2 (some centres not stated) here
Return: NO

Enquiry: Entry to check: CN(C)C(N)=NCCC[C@H](N)C(=O)O
Return: NO

Enquiry: Entry to check: Cc1ccc(O)c(N=Nc2ccccc2)n1
Return: YES

---

Molecular target: N-terminal Xaa-Pro-Lys N-methyltransferase 1 (Homo sapiens)
Assay: qHTS Assay for Inhibitors of N-terminal methyltransferase 1 (NTMT1): LOPAC validation of the NTMT1 SAHH-coupled ThioGlo3 Assay (AID 1347143);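 further: SAH from peptide methylation measured as thiol fluorescence via SAHH coupling and ThioGlo3; nearly all actives have a fitted effect of over 70% in size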
Conditions: recombinant NTMT1, SAHH-coupled ThioGlo3 fluorescence; series mostly up to 114 µM
From the text: Assay Submitter (PI): Rong Huang Ph.D, Purdue University, West Lafayette, IN 47907 The N-terminal methytransferase 1 is the first methyltransferase that methylates protein alpha-N-amines and plays an important role in regulating cell mitosis, chromatin interactions and DNA repair. […] To address this unmet need, a panel of assay is created and established to enable quantitative high-throughput screening (qHTS) for novel, potent, and selective small molecule NTMT1 inhibitors. […]
Results filed as inconclusive are left out. Activity calls are given as the source filed them. Calls come from the whole dose curve; as a rule, active = well fitted inhibition curve with a large enough effect; inconclusive = small, poorly fitted or top-dose-only effect; inactive = no such curve, though single readings can be large or run the other way.
Parameter call: string, one of active, inactive

Here's what some known entries look like.
Cc1cc(NC2CCCCC2)nc(-n2nc(C)cc2C)n1; inactive
CCOC(=O)C1=C(C)NC(C)=C(C(=O)OCC)C1c1c(F)c(F)c(F)c(F)c1F; active
NCCCCC(=O)O; inactive
O=C1C(SCCO)=C(SCCO)C(=O)c2ccccc21; inactive
NC(=O)C1=CN(C2OC(COP(=O)(O)OP(=O)(O)OC[C@H]3O[C@@H](n4cnc5c(N)ncnc54)[C@H](OP(=O)(O)O)C3O)C(O)C2O)C=CC1 (stereo not given in full); inactive
O=c1[nH]c2cc(C(F)(F)F)ccc2n1-c1cc(C(F)(F)F)ccc1O; inactive

Enquiry: # fetch the recorded call for Nc1ccn([C@H]2O[C@H](CO)[C@@H](O)C2(F)F)c(=O)n1 here
Return: inactive

Enquiry: Entry to check: C[C@@H](CN1CCC(Cc2ccccc2)CC1)[C@@H](O)c1ccc(O)cc1
Return: inactive

Enquiry: Entry to check: COCCOc1cc2nc[nH]c(=O)c2cc1OCCOC
Return: inactive

Enquiry: Entry to check: C=CCc1cccc(/C=N/NC(=O)CN2CCN(Cc3ccccc3)CC2)c1O
Return: inactive
